All figures here come from ChEMBL document CHEMBL3763086.

Below: a set of entries, each annotated with reported MIC.
# Tested on: Enterococcus sp.
# test_description: Antibacterial activity against Enterococcus sp. J 14365/08 after 24 hrs by microbroth dilution method
# Format: functional
# experimental_context: J 14365/08, 24 h
value_type: MIC (µM)

| chemical_string | readout_qualifier | readout_number |
| --- | --- | --- |
| O=C(Nc1ccccc1)Oc1ccc(Cl)cc1C(=O)Nc1ccc(F)cc1 | = | 250 |
| O=C(NC1CCCCC1)Oc1ccccc1C(=O)Nc1ccccc1 | = | 500 |
| O=C(NCCc1ccccc1)Oc1ccc(Cl)cc1C(=O)Nc1ccc(Cl)cc1 | = | 500 |
| O=C(Nc1ccccc1)Oc1ccc(Cl)cc1C(=O)Nc1ccc(Br)cc1 | = | 500 |
| O=C(NC1CCCCC1)Oc1ccc(Cl)cc1C(=O)Nc1ccc(Cl)cc1 | > | 125 |
| O=C(NCCc1ccccc1)Oc1ccccc1C(=O)Nc1ccccc1 | > | 500 |
| O=C(NCc1ccccc1)Oc1ccc(Cl)cc1C(=O)Nc1ccc(Cl)cc1 | > | 125 |
| O=C(NC12CC3CC(CC(C3)C1)C2)Oc1ccc(Cl)cc1C(=O)Nc1ccc(Br)cc1 | > | 500 |
| O=C(NCCc1ccccc1)Oc1ccc(Cl)cc1C(=O)Nc1ccc(Br)cc1 | > | 500 |

* * *

# Test system: Trichosporon asahii
# test_description: Antifungal activity against Trichosporon asahii 1188 after 24 hrs by microbroth dilution method
# Format: functional
# experimental_context: Trichosporon asahii, 1188, 24 h
value_type: MIC (µM)

| chemical_string | readout_qualifier | readout_number |
| --- | --- | --- |
| O=C(NC1CCCCC1)Oc1ccc(Cl)cc1C(=O)Nc1ccc(Cl)cc1 | = | 125 |
| O=C(NC1CCCCC1)Oc1ccccc1C(=O)Nc1ccccc1 | > | 500 |
| O=C(NC1CCCCC1)Oc1ccc(Cl)cc1C(=O)Nc1ccc(Br)cc1 | = | 62.5 |
| O=C(Nc1ccccc1)Oc1ccc(Cl)cc1C(=O)Nc1ccc(F)cc1 | > | 250 |
| O=C(NCCc1ccccc1)Oc1ccc(Cl)cc1C(=O)Nc1ccc(F)cc1 | = | 125 |
| O=C(NC12CC3CC(CC(C3)C1)C2)Oc1ccc(Cl)cc1C(=O)Nc1ccc(Cl)cc1 | = | 31.2 |
| O=C(NCCc1ccccc1)Oc1ccc(Cl)cc1C(=O)Nc1ccc(Br)cc1 | = | 62.5 |
| O=C(Nc1ccccc1)Oc1ccccc1C(=O)Nc1ccccc1 | > | 500 |
| OC(Cn1cncn1)(Cn1cncn1)c1ccc(F)cc1F | = | 250 |
| O=C(NCCc1ccccc1)Oc1ccccc1C(=O)Nc1ccccc1 | > | 500 |
| O=C(NC1CCCCC1)Oc1ccc(Cl)cc1C(=O)Nc1ccc(F)cc1 | = | 62.5 |
| O=C(NCc1ccccc1)Oc1ccc(Cl)cc1C(=O)Nc1ccc(Cl)cc1 | = | 15.6 |

* * *

Catalogue of molecules with associated MIC
# Tested on: Candida albicans
# test_description: Antifungal activity against Candida albicans ATCC 44859 after 24 hrs by microbroth dilution method
# Type: functional
# experimental_context: ATCC 44859, 24 h
value_type: MIC

| chemical_string | result |
| --- | --- |
| C[C@@H]1[C@H](O)[C@@H](C)/C=C/C=C/C=C/C=C/C=C/C=C/C=C/[C@H](O[C@@H]2O[C@H](C)[C@@H](O)[C@H](N)[C@@H]2O)C[C@@H]2O[C@](O)(C[C@@H](O)C[C@@H](O)[C@H](O)CC[C@@H](O)C[C@@H](O)CC(=O)O[C@H]1C)C[C@H](O)[C@H]2C(=O)O | 0.12 µM |
| O=C(NCc1ccccc1)Oc1ccc(Cl)cc1C(=O)Nc1ccc(Cl)cc1 | > 125 µM |
| O=C(Nc1ccccc1)Oc1ccc(Cl)cc1C(=O)Nc1ccc(Cl)cc1 | > 125 µM |

* * *

A collection of molecules and their measured MIC
# System: Candida tropicalis
# test_description: Antifungal activity against Candida tropicalis 156 after 48 hrs by microbroth dilution method
# Format: functional
# experimental_context: Candida tropicalis, 156, 48 h

| chemical_string | MIC |
| --- | --- |
| O=C(Nc1ccccc1)Oc1ccccc1C(=O)Nc1ccccc1 | > 500 µM |
| O=C(NC1CCCCC1)Oc1ccc(Cl)cc1C(=O)Nc1ccc(F)cc1 | > 125 µM |
| O=C(NCCc1ccccc1)Oc1ccccc1C(=O)Nc1ccccc1 | > 500 µM |

* * *

# System: Enterococcus sp.
# test_description: Antibacterial activity against Enterococcus sp. J 14365/08 after 24 hrs by microbroth dilution method
# Assay type: functional
# experimental_context: J 14365/08, 24 h
value_type: MIC

| chemical_string | result |
| --- | --- |
| O=C(NC1CCCCC1)Oc1ccc(Cl)cc1C(=O)Nc1ccc(F)cc1 | > 125 µM |
| O=C(NCCc1ccccc1)Oc1ccc(Cl)cc1C(=O)Nc1ccc(F)cc1 | > 500 µM |
| O=C(Nc1ccccc1)Oc1ccccc1C(=O)Nc1ccccc1 | > 500 µM |
| O=C(NCc1ccccc1)Oc1ccc(Cl)cc1C(=O)Nc1ccc(Br)cc1 | > 500 µM |
| O=C(NCc1ccccc1)Oc1ccc(Cl)cc1C(=O)Nc1ccc(F)cc1 | > 500 µM |
| O=C(NCc1ccccc1)Oc1ccccc1C(=O)Nc1ccccc1 | > 500 µM |

* * *

# Test system: Staphylococcus epidermidis
# test_description: Antibacterial activity against Staphylococcus epidermidis H 6966/08 after 24 hrs by microbroth dilution method
# Format: functional
# experimental_context: H 6966/08, 24 h
Please use Yes for MIC under 8 µM and No for everything else, ties included.

| chemical_string | class_assignment |
| --- | --- |
| O=C(NCc1ccccc1)Oc1ccc(Cl)cc1C(=O)Nc1ccc(Br)cc1 | Yes |
| O=C(NCCc1ccccc1)Oc1ccc(Cl)cc1C(=O)Nc1ccc(Cl)cc1 | Yes |
| CC1(C)S[C@@H]2[C@H](NC(=O)Cc3ccccc3)C(=O)N2[C@H]1C(=O)O | No |
| O=C(NC1CCCCC1)Oc1ccc(Cl)cc1C(=O)Nc1ccc(Cl)cc1 | Yes |
| O=C(Nc1ccccc1)Oc1ccc(Cl)cc1C(=O)Nc1ccc(Br)cc1 | Yes |
| O=C(NC1CCCCC1)Oc1ccccc1C(=O)Nc1ccccc1 | No |
| O=C(NCCc1ccccc1)Oc1ccccc1C(=O)Nc1ccccc1 | No |
| O=C(NC1CCCCC1)Oc1ccc(Cl)cc1C(=O)Nc1ccc(Br)cc1 | Yes |

* * *

Attribute: MIC
# System: Candida tropicalis
# test_description: Antifungal activity against Candida tropicalis 156 after 48 hrs by microbroth dilution method
# Format: functional
# experimental_context: Candida tropicalis, 156, 48 h
value_type: MIC

| chemical_string | value_type | result |
| --- | --- | --- |
| O=C(NC1CCCCC1)Oc1ccccc1C(=O)Nc1ccccc1 | MIC | > 500 µM |
| O=C(Nc1ccccc1)Oc1ccc(Cl)cc1C(=O)Nc1ccc(Cl)cc1 | MIC | > 125 µM |
| O=C(NC12CC3CC(CC(C3)C1)C2)Oc1ccc(Cl)cc1C(=O)Nc1ccc(Cl)cc1 | MIC | 250 µM |

* * *

# System: Pichia kudriavzevii
# test_description: Antifungal activity against Candida krusei E28 after 24 hrs by microbroth dilution method
# Format: functional
# experimental_context: E28, 24 h

| chemical_string | target_under_test | MIC |
| --- | --- | --- |
| O=C(NCCc1ccccc1)Oc1ccc(Cl)cc1C(=O)Nc1ccc(Br)cc1 | Pichia kudriavzevii | > 125 µM |
| O=C(NC12CC3CC(CC(C3)C1)C2)Oc1ccc(Cl)cc1C(=O)Nc1ccc(Br)cc1 | Pichia kudriavzevii | > 125 µM |
| O=C(NCCc1ccccc1)Oc1ccc(Cl)cc1C(=O)Nc1ccc(Cl)cc1 | Pichia kudriavzevii | > 500 µM |
| O=C(NC1CCCCC1)Oc1ccc(Cl)cc1C(=O)Nc1ccc(F)cc1 | Pichia kudriavzevii | > 125 µM |
| O=C(Nc1ccccc1)Oc1ccccc1C(=O)Nc1ccccc1 | Pichia kudriavzevii | > 500 µM |
| O=C(NC1CCCCC1)Oc1ccc(Cl)cc1C(=O)Nc1ccc(Br)cc1 | Pichia kudriavzevii | > 125 µM |

* * *

# System: Trichophyton mentagrophytes
# test_description: Antifungal activity against Trichophyton mentagrophytes 445 after 120 hrs by microbroth dilution method
# Type: functional
# experimental_context: Trichophyton mentagrophytes, 445, 120 h

| chemical_string | readout_qualifier | MIC (µM) |
| --- | --- | --- |
| O=C(NCCc1ccccc1)Oc1ccc(Cl)cc1C(=O)Nc1ccc(F)cc1 | > | 500 |
| O=C(NC12CC3CC(CC(C3)C1)C2)Oc1ccc(Cl)cc1C(=O)Nc1ccc(Br)cc1 | = | 7.81 |
| O=C(NCCc1ccccc1)Oc1ccc(Cl)cc1C(=O)Nc1ccc(Br)cc1 | = | 3.9 |
| O=C(NC1CCCCC1)Oc1ccccc1C(=O)Nc1ccccc1 | > | 500 |
| O=C(NCc1ccccc1)Oc1ccc(Cl)cc1C(=O)Nc1ccc(Br)cc1 | = | 3.9 |
| O=C(Nc1ccccc1)Oc1ccc(Cl)cc1C(=O)Nc1ccc(F)cc1 | = | 15.6 |
| O=C(NC12CC3CC(CC(C3)C1)C2)Oc1ccc(Cl)cc1C(=O)Nc1ccc(Cl)cc1 | = | 3.9 |
| O=C(NCCc1ccccc1)Oc1ccccc1C(=O)Nc1ccccc1 | = | 62.5 |
| C[C@@H]1[C@H](O)[C@@H](C)/C=C/C=C/C=C/C=C/C=C/C=C/C=C/[C@H](O[C@@H]2O[C@H](C)[C@@H](O)[C@H](N)[C@@H]2O)C[C@@H]2O[C@](O)(C[C@@H](O)C[C@@H](O)[C@H](O)CC[C@@H](O)C[C@@H](O)CC(=O)O[C@H]1C)C[C@H](O)[C@H]2C(=O)O | = | 1.95 |
